# System: Bacteria
# protocolNotes: Inhibition of bacterial NDM1 at 200 uM using chromacef as substrate preincubated for 10 mins followed by substrate addition
Could you label it Satisfied if measured inhibition is 10% or higher, and Not satisfied otherwise?

Form field: inhibition at least 10%? Entry: `Cc1occ(O)c(=O)c1C(=O)O`
Satisfied

Next compound up: `O=c1c(O)ccccc1O`
Satisfied

Similarly, `CNC(=O)c1oc(C)cc(=O)c1O` ?
Not satisfied

Can you handle `Cc1cc(=O)c(O)c(C(=O)O)[nH]1` next?
Not satisfied

What do you get for `O=C(O)c1cccc(=O)n1O` ?
Satisfied

Similarly, `O=C(O)c1ccc2cccc(O)c2[n+]1[O-]` ?
Satisfied

Try this compound too: `O=C(O)c1occc(=O)c1O`
Not satisfied

Repeat for the following compound: `CNC(=O)c1cc(C)[nH]c(=O)c1O`
Not satisfied

And the next one, `Cc1cc(=O)c(O)c(C(=O)O)n1O` ?
Satisfied

Proceed to `Cc1cc(O)c(=O)c(O)cc1C(=O)O`
Satisfied

`Oc1cccc(O)c1O` ?
Satisfied

`O=C1c2c(O)cccc2Cc2cccc(O)c21` , same question.
Not satisfied

Now the compound `Cc1cc(=O)c(O)c(C(=O)O)n1C`
Not satisfied
